- PROCEDURE_SUMMARY: Plasma pharmacokinetics after single intragastric administration in rats
- Assay type: in vivo, SD rat
- ASSAY_SETUP: both sexes, rat, plasma, po; all rats (♂ and ♀), single gavage 10 mg/kg, Mean ± SD; read-out: Vz/F
ASSAY_ENDPOINT: Vd/F

I have this compound here, CC(C)(O)[C@@H]1CC[C@](C)([C@H]2[C@@H](O)C[C@@]3(C)[C@@H]4C[C@H](O)[C@H]5C(C)(C)C(F)(F)CC[C@@]56C[C@@]46CC[C@]23C)O1 [Compound 2] , and I need its recorded Vd/F.
27.9 L/kg

----------
- PROCEDURE_SUMMARY: Solubility test in water and FaSSIF
- Format: physicochemical
- ASSAY_SETUP: Water, 37° C., up to 24 hours
Parameter log10 of Solubility: see the listing below.
Could you please treat all values as log10 of Solubility in µg/mL?

Example results:
{"columns": ["COMPOUND", "log10 of Solubility"],
 "data": [
  ["CC(C)(O)[C@@H]1CC[C@@](C)([C@H]2[C@@H](O)C[C@@]3(C)[C@@H]4C[C@H](OC(=O)C[C@H]5CCCN5)[C@H]5C(C)(C)C(F)(F)CC[C@@]56C[C@@]46CC[C@]23C)O1.Cl", 2.98],
  ["CC(C)(O)C1CCC(C)(C2C(O)CC3(C)C4CC(OC(=O)CNCCNCCN)C5C(C)(C)C(F)(F)CCC56CC46CCC23C)O1.O=[N+]([O-])O (centres unmarked)", 3.32],
  ["CC(C)(O)[C@@H]1CC[C@@](C)([C@H]2[C@@H](O)C[C@@]3(C)[C@@H]4C[C@H](OC(=O)[C@@H](N)Cc5c[nH]cn5)[C@H]5C(C)(C)C(F)(F)CC[C@@]56C[C@@]46CC[C@]23C)O1.O=S(=O)(O)O", 2.85]
]}

// log10 of Solubility lookup, key: CC(C)(O)[C@@H]1CC[C@@](C)([C@H]2[C@@H](O)C[C@@]3(C)[C@@H]4C[C@H](OC(=O)[C@@H](N)CO)[C@H]5C(C)(C)C(F)(F)CC[C@@]56C[C@@]46CC[C@]23C)O1.Cl
3.09

// returns reported log10 of Solubility for input CC(C)(O)C1CCC(C)(C2C(O)CC3(C)C4CC(OP(=O)(O)O)C5C(C)(C)C(F)(F)CCC56CC46CCC23C)O1.N (centres unmarked)
4.10

----------
- PROCEDURE_SUMMARY: Plasma pharmacokinetics after single intravenous injection in rats
- Type: in vivo
- ASSAY_SETUP: female, rat, rats ♀, intravenous 2 mg/kg, Mean ± SD, read-out: C0.05
ASSAY_ENDPOINT: concentration at 0.05 h

What measured concentration at 0.05 h goes with CC(C)(O)[C@@H]1CC[C@](C)([C@H]2[C@@H](O)C[C@@]3(C)[C@@H]4C[C@H](O)[C@H]5C(C)(C)C(F)(F)CC[C@@]56C[C@@]46CC[C@]23C)O1 ?
1390 ng/mL

----------
- PROCEDURE_SUMMARY: Plasma pharmacokinetics after single intragastric administration in rats
- Format: in vivo, SD rat
- ASSAY_SETUP: both sexes, rat, plasma, po; all rats (♂ and ♀), single gavage 10 mg/kg, Mean ± SD
ASSAY_ENDPOINT: Cmax (ng/mL)
The figure you give is taken to be in ng/mL; do not add the unit.

Would you kindly share the measured Cmax for CC(C)(O)[C@@H]1CC[C@](C)([C@H]2[C@@H](O)C[C@@]3(C)[C@@H]4C[C@H](O)[C@H]5C(C)(C)C(F)(F)CC[C@@]56C[C@@]46CC[C@]23C)O1 ?
323
